Reported values of TGI for individual entries
# Test system: SK-OV-3 ovarian
# test: NCI tumour cell line growth inhibition, 48 h
outcome measure: TGI

[[record]]
compound = "N#Cc1nc(COCCOCc2ccccc2)oc1N"
observed_value = "> 100 µM"

[[record]]
compound = "S=C1Cc2c([nH]c3ccccc23)-c2ccccc2N1"
observed_value = "64.4 µM"

[[record]]
compound = "CC[C@@H]1/C=C/C=C/C[C@H](C)[C@@H](O)[C@](C)(O)C(=O)[C@H](C)[C@@H](O)[C@H](C)C(=O)[C@H](C)[C@@H](O)[C@H](C)/C=C/C(=O)O[C@H]2[C@@H](C)[C@@H](CC1)O[C@]1(O[C@H](CC(C)O)[C@H](C)CC1=O)[C@@H]2C (some centres undefined)"
observed_value = "> 19.2 µM"

[[record]]
compound = "COC(=O)c1cc2c(c(C(=O)OC)c1O)C(=O)C=CC2=O"
observed_value = "> 100 µM"


---

# Test system: OVCAR-3 ovarian
# test: NCI tumour cell line growth inhibition, 48 h
Reported values of TGI for individual entries
outcome measure: TGI

[[record]]
compound = "Nc1nc(Cl)cc(NCC2(CO)CC(OCc3ccccc3)C2)n1 (configuration not stated)"
assayed_system = "OVCAR-3 ovarian"
outcome_measure = "TGI"
observed_value = "> 100 µM"

[[record]]
compound = "O=C(O)c1cc(N=Nc2ccc([As](=O)(O)O)cc2)ccc1O"
assayed_system = "OVCAR-3 ovarian"
outcome_measure = "TGI"
observed_value = "> 100 µM"

[[record]]
compound = "CN1CCC(OC(=O)Oc2ccccc2)(c2ccccc2)CC1"
assayed_system = "OVCAR-3 ovarian"
outcome_measure = "TGI"
observed_value = "> 100 µM"

[[record]]
compound = "COC(=O)c1ccc2c(c1)CC1(C2)Cc2cc3c(cc2C1=O)CCC3 (configuration not stated)"
assayed_system = "OVCAR-3 ovarian"
outcome_measure = "TGI"
observed_value = "87.8 µM"

[[record]]
compound = "C=C(C)[C@@H](C(=O)OC)N1C(=O)c2ccccc2C1=O"
assayed_system = "OVCAR-3 ovarian"
outcome_measure = "TGI"
observed_value = "> 100 µM"

[[record]]
compound = "CN1C(NC(=O)c2ccc(Cl)nc2)=NS(=O)(=O)c2cc(Cl)ccc21"
assayed_system = "OVCAR-3 ovarian"
outcome_measure = "TGI"
observed_value = "> 100 µM"

[[record]]
compound = "CSc1nc(Cl)c2c(n1)Sc1nc3cc4c(cc3n1C2O)OCO4 (configuration not stated)"
assayed_system = "OVCAR-3 ovarian"
outcome_measure = "TGI"
observed_value = "7.3 µM"


---

# System: NCI-H226 lung
# test: NCI tumour cell line growth inhibition, 48 h
Reported values of TGI for individual entries
outcome measure: TGI

[[record]]
compound = "CCCCn1c(C)c(C(=O)OCC)c2cc(OCc3ccc(C(=O)Nn4c(C)ccc4C)cc3)c(Br)cc21"
observed_value = "> 100 µM"

[[record]]
compound = "COc1ccc2c(c1)OCc1c-2oc2ccccc2c1=O"
observed_value = "> 100 µM"

[[record]]
compound = "N#CC1=C(N2CCCC2)NC(=O)CC1=O"
observed_value = "> 100 µM"

[[record]]
compound = "CCCCCCCCCCC(O)C1CCC(C2CCC(C(O)CCCCC(O)CCCCCC(O)CC3=CC(C)OC3=O)O2)O1 (stereo unspecified)"
observed_value = "> 25 µM"

[[record]]
compound = "O=C1SCC(O)=C1/C=N/Nc1nc2ccccc2o1"
observed_value = "76.6 µM"

[[record]]
compound = "Cc1[nH]c(=O)[nH]c(=S)c1C(=O)NC(C)(CO)CO"
observed_value = "> 100 µM"

[[record]]
compound = "O=C(O)C1C(C(=O)O)C(C(=O)O)C1C(=O)O (stereo unspecified)"
observed_value = "> 100 µM"

[[record]]
compound = "C=CCN1C(=O)/C(=C/c2ccccc2)NC1=S"
observed_value = "> 100 µM"

[[record]]
compound = "CO/N=C(\\C(=O)Nc1cncs1)c1csc(NC(c2ccccc2)(c2ccccc2)c2ccccc2)n1"
observed_value = "> 10 µM"

[[record]]
compound = "CCOC(=O)C(=C(SC)SC)c1nn2c(=O)cc(C)nc2s1"
observed_value = "44.6 µM"

[[record]]
compound = "CC(C(=O)O)c1cnn(-c2ccccc2)c1-n1cccc1 (stereo unspecified)"
observed_value = "> 100 µM"


---

# System: PC-3 prostate
# test: NCI tumour cell line growth inhibition, 48 h; in the data active means GI50 below about 0.43 µM; inactive means the rest
Labels: active, inactive

[[record]]
compound = "COc1ccc(OC(=O)O[C@H]2[C@H](O[C@H]3[C@@H](O)COC(O[C@H]4C[C@H]5[C@@H]6CC=C7C[C@@H](O)CC[C@]7(C)[C@H]6CC[C@]5(C)[C@H]4[C@H](C)C(=O)CCC(C)C)[C@@H]3OC(C)=O)OC[C@@H](O)[C@@H]2O)cc1 (stereo partly drawn)"
answer_label = "active"

[[record]]
compound = "Cc1cc(C2CCCCC2)n(O)c(=O)c1"
answer_label = "inactive"

[[record]]
compound = "Cn1cc(C2=C(c3cn(C)c4c(N)cccc34)C(=O)NC2=O)c2ccccc21"
answer_label = "inactive"


---

# System: HOP-92 NSCLC
# test: NCI tumour cell line growth inhibition, 48 h
outcome measure: TGI

[[record]]
compound = "CC/C(=N/O)c1ccc(Br)s1"
observed_value = "> 100 µM"

[[record]]
compound = "CC(=O)[C@]1(O)Cc2c(O)c3c(c(O)c2C(OC2OC(C)C(O)C(O)C2F)C1)C(=O)c1ccccc1C3=O (some centres not stated)"
observed_value = "3.92 µM"

[[record]]
compound = "COc1cc2c3c(n(CCCCl)c(=O)c2cc1OC)-c1ccccc1C3=O"
observed_value = "> 100 µM"

[[record]]
compound = "CCSc1nc(N2CCOCC2)c2cn[nH]c2n1"
observed_value = "> 100 µM"

[[record]]
compound = "Cc1cc(C)cc(Nc2cc(C)nc3nc(C(F)(F)F)nn23)c1"
observed_value = "97.9 µM"

[[record]]
compound = "COc1ccc2c(c1)OCc1c-2oc2ccccc2c1=O"
observed_value = "> 100 µM"

[[record]]
compound = "CCCCCCCCCCCCCCCCCc1cccc(OCOCCOC)c1CO"
observed_value = "> 100 µM"

[[record]]
compound = "N#CCCN(CCC#N)c1ccc(C(=O)NN)cc1"
observed_value = "> 100 µM"

[[record]]
compound = "c1ccc2c(c1)nc1n2CNCC1"
observed_value = "> 100 µM"

[[record]]
compound = "O=C(CCc1ccc(O)cc1)NCCc1ccc(O)cc1"
observed_value = "> 100 µM"

[[record]]
compound = "C=CCN1C(=O)/C(=C/c2ccccc2)NC1=S"
observed_value = "> 100 µM"

[[record]]
compound = "CNC(=O)N1CCN(C(=O)NC)CCN(C(=O)NC)CC1"
observed_value = "> 100 µM"


---

# Test system: A549 NSCLC
# test: NCI tumour cell line growth inhibition, 48 h
Reported values of TGI for individual entries
outcome measure: TGI

[[record]]
compound = "COC(=O)C(=O)C(C(=O)C(=O)Nc1ccc(C)cc1C)c1nc2ccccc2[nH]c1=O (stereo not given)"
observed_value = "> 100 µM"

[[record]]
compound = "CC(=O)NNc1nc(C)c(C(/C=C/c2cccc([N+](=O)[O-])c2)=N/NC(=S)NN)s1"
observed_value = "> 100 µM"

[[record]]
compound = "COc1cc(Cc2cc(OC)c(OC)c(OC)c2)ccc1O"
observed_value = "> 100 µM"

[[record]]
compound = "Cn1cc(C2=C(c3cn(CCCN=C(N)N)c4ccccc34)C(=O)NC2=O)c2ccccc21"
observed_value = "> 25 µM"

[[record]]
compound = "CSc1nc(NC2OC(COC(C)=O)C(OC(C)=O)C(OC(C)=O)C2OC(C)=O)c2c(OC(C)=O)c(C)c(=O)oc2n1 (stereo not given)"
observed_value = "> 100 µM"

[[record]]
compound = "CC12CCCC(CC(=O)c3[nH]c4ccccc4c31)C2 (stereo not given)"
observed_value = "> 55.9 µM"

[[record]]
compound = "NC(N)=N/N=C/c1c(Cl)nc2sccn12"
observed_value = "93.8 µM"

[[record]]
compound = "COc1ccc(-c2c(C#N)c(NC(=S)NC(=O)c3ccccc3)nc3c2CCCC3)cc1OC"
observed_value = "> 100 µM"

[[record]]
compound = "O=C(CCCSc1nc(-c2ccc(Cl)cc2)cc(-c2ccc(Cl)cc2)n1)NO"
observed_value = "12.4 µM"

[[record]]
compound = "O=C1C(Br)=CC2(C=C1Br)CCN=c1c(O)c3c(c(O)c12)=NC=N3"
observed_value = "37.9 µM"


---

# System: DU-145 prostate
# test: NCI tumour cell line growth inhibition, 48 h
Reported values of TGI for individual entries
outcome measure: TGI (µM)

[[record]]
molecule = "CC(=O)OC[C@H]1[C@@H]2C(CC[C@]13CO3)OC(=O)CC(C)[C@]2(C)CCc1ccoc1 (some centres not stated)"
assayed_system = "DU-145 prostate"
value_prefix = ">"
observed_value = 100

[[record]]
molecule = "CCCCn1c(C)c(C(=O)OCC)c2cc(OCc3ccc(C(=O)Nn4c(C)ccc4C)cc3)c(Br)cc21"
assayed_system = "DU-145 prostate"
value_prefix = ">"
observed_value = 100

[[record]]
molecule = "CC(=O)OC[C@]12CC[C@H]3[C@@H](C[C@H]4O[C@]45CC=CC(=O)[C@]35C)[C@]1(O)CC[C@@]2(O)[C@@](C)(O)C1CC(C)=C(C)C(=O)O1 (some centres not stated)"
assayed_system = "DU-145 prostate"
value_prefix = ">"
observed_value = 32.8

[[record]]
molecule = "COc1ccc(-n2c(SCc3cc(OC)c(OC)c(OC)c3)nc3ccc(C)cc3c2=O)cc1"
assayed_system = "DU-145 prostate"
value_prefix = ">"
observed_value = 100

[[record]]
molecule = "CCCCn1c(-c2ccc(C(=O)O/N=C(\\N)c3ccc(OC)cc3)cc2)nc(-c2ccccc2)c1-c1ccccc1"
assayed_system = "DU-145 prostate"
value_prefix = "="
observed_value = 2.59

[[record]]
molecule = "CC(=O)[C@]1(O)Cc2c(O)c3c(c(O)c2C(OC2OC(C)C(O)C(O)C2F)C1)C(=O)c1ccccc1C3=O (some centres not stated)"
assayed_system = "DU-145 prostate"
value_prefix = "="
observed_value = 45.8

[[record]]
molecule = "C=C1C(=O)O[C@H]2[C@H]1CC/C(COC(=O)/C=C\\C(=O)NCc1ccc(Cn3c(=O)sn(-c4ccc(C#N)cc4)c3=O)cc1)=C\\CC[C@@]1(C)O[C@@H]21"
assayed_system = "DU-145 prostate"
value_prefix = "="
observed_value = 1.4

